This document collects Ki values reported for Gonadotropin-releasing hormone receptor (Homo sapiens).
One number for each entry, in nM.

Below are worked cases with known answers.
[[record]]
molecule_smiles = "C#CCNC(=O)CN(Cc1ccccc1)Cc1c(-c2ccc(NC(=O)NCC)cc2)nc2n(Cc3c(F)cccc3F)cc(C(=O)OCC)c(=O)n12"
quantity_unit = "nM"
observed_value = 5.25

[[record]]
molecule_smiles = "CCOC(=O)c1cn(Cc2c(F)cccc2F)c2nc(-c3ccc(NC(=O)NCc4cn(CCOCCOCCn5cc(CNC(=O)Nc6ccc(-c7nc8n(Cc9c(F)cccc9F)cc(C(=O)OCC)c(=O)n8c7CN(C)Cc7ccccc7)cc6)nn5)nn4)cc3)c(CN(C)Cc3ccccc3)n2c1=O"
quantity_unit = "nM"
observed_value = 23.4

[[record]]
molecule_smiles = "CCNC(=O)Nc1ccc(-c2nc3n(Cc4c(F)cccc4F)cc(C(=O)OCC)c(=O)n3c2CN(CC(=O)NCc2cn(CCOCCOCCOCCOCCn3cc(CNC(=O)CN(Cc4ccccc4)Cc4c(-c5ccc(NC(=O)NCC)cc5)nc5n(Cc6c(F)cccc6F)cc(C(=O)OCC)c(=O)n45)nn3)nn2)Cc2ccccc2)cc1"
quantity_unit = "nM"
observed_value = 195

[[record]]
molecule_smiles = "C#CCNC(=O)Nc1ccc(-c2nc3n(Cc4c(F)cccc4F)cc(C(=O)OCC)c(=O)n3c2CN(C)Cc2ccccc2)cc1"
quantity_unit = "nM"
observed_value = 1.35


As a next step, examine the compound that follows.
## Task Using the record for C#CCNC(=O)c1cn(Cc2c(F)cccc2F)c2nc(-c3ccc(NC(=O)NCC)cc3)c(CN(C)Cc3ccccc3)n2c1=O , report its Ki.
## Result 162

====

- Target Or System: Gonadotropin-releasing hormone receptor (Homo sapiens, UniProt P30968)
- Sequence (P30968 whole entry): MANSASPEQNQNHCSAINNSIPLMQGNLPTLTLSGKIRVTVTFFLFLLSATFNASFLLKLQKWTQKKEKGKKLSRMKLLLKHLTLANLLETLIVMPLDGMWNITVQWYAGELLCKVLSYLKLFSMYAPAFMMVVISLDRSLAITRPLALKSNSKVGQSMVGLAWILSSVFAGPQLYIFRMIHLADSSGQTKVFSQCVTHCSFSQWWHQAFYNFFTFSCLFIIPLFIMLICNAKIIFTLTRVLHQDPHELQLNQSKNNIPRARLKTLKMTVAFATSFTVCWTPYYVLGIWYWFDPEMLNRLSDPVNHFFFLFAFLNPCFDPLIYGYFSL
- Assay Procedure: Antagonist activity at human GnRHR expressed in CHO cells after 30 mins by luciferase reporter gene assay
Property Measured: IC50 (nM)
Numbers only, in nM.

[[record]]
molecule_smiles = "CCNC(=O)Nc1ccc(-c2nc3n(Cc4c(F)cccc4F)cc(C(=O)OCC)c(=O)n3c2CN(CC(=O)NCc2cn(CCOCCOCCOCCn3cc(CNC(=O)CN(Cc4ccccc4)Cc4c(-c5ccc(NC(=O)NCC)cc5)nc5n(Cc6c(F)cccc6F)cc(C(=O)OCC)c(=O)n45)nn3)nn2)Cc2ccccc2)cc1"
target_or_system = "Gonadotropin-releasing hormone receptor (Homo sapiens, UniProt P30968)"
observed_value = 1320


Could I get IC50 for every one of these entries?
1. CCOC(=O)c1cn(Cc2c(F)cccc2F)c2nc(-c3ccc(NC(=O)NCc4cn(CCN=[N+]=[N-])nn4)cc3)c(CN(C)Cc3ccccc3)n2c1=O
2. CCNC(=O)Nc1ccc(-c2nc3n(Cc4c(F)cccc4F)cc(C(=O)OCC)c(=O)n3c2CN(CC(=O)NCc2cn(CCOCCOCCOCCOCCN=[N+]=[N-])nn2)Cc2ccccc2)cc1
3. CCNC(=O)Nc1ccc(-c2nc3n(Cc4c(F)cccc4F)cc(C(=O)OCC)c(=O)n3c2CN(CC(=O)NCc2cn(CCOCCOCCOCCN=[N+]=[N-])nn2)Cc2ccccc2)cc1
4. CCOC(=O)c1cn(Cc2c(F)cccc2F)c2nc(-c3ccc(NC(=O)NCc4cn(CCOCCn5cc(CNC(=O)Nc6ccc(-c7nc8n(Cc9c(F)cccc9F)cc(C(=O)OCC)c(=O)n8c7CN(C)Cc7ccccc7)cc6)nn5)nn4)cc3)c(CN(C)Cc3ccccc3)n2c1=O
5. CCNC(=O)Nc1ccc(-c2nc3n(Cc4c(F)cccc4F)cc(C(=O)OCC)c(=O)n3c2CN(CC(=O)NCc2cn(CCOCCOCCOCCOCCn3cc(CNC(=O)CN(Cc4ccccc4)Cc4c(-c5ccc(NC(=O)NCC)cc5)nc5n(Cc6c(F)cccc6F)cc(C(=O)OCC)c(=O)n45)nn3)nn2)Cc2ccccc2)cc1
6. C#CCNC(=O)Nc1ccc(-c2nc3n(Cc4c(F)cccc4F)cc(C(=O)OCC)c(=O)n3c2CN(C)Cc2ccccc2)cc1
7. CCOC(=O)c1cn(Cc2c(F)cccc2F)c2nc(-c3ccc(NC(=O)NCc4cn(CCOCCOCCn5cc(CNC(=O)Nc6ccc(-c7nc8n(Cc9c(F)cccc9F)cc(C(=O)OCC)c(=O)n8c7CN(C)Cc7ccccc7)cc6)nn5)nn4)cc3)c(CN(C)Cc3ccccc3)n2c1=O
8. CCNC(=O)Nc1ccc(-c2nc3n(Cc4c(F)cccc4F)cc(C(=O)OCC)c(=O)n3c2CN(CC(=O)NCc2cn(CCN=[N+]=[N-])nn2)Cc2ccccc2)cc1

## Result
1. 2570
2. 832
3. 724
4. 3160
5. 309
6. 676
7. 955
8. 724
